- Tested on: PANC-1
- METHOD: SRB colorimetric cell growth inhibition assay, PANC-1
- Type: cell-based
- MEASUREMENT_SETUP: Homo sapiens, PANC-1, PANC-1; GI=growth inhibition; read-out: GI50 PANC-1
OBSERVABLE: log10(GI50) (log10 of the value in nM)

COMPOUND	log10(GI50)
COc1cc(-c2c3c4cc(OC)c(OC(C)C)cc4oc(=O)c3n3ccc4c(OC(C)C)c(OC)c(OC)c(COS(C)(=O)=O)c4c23)ccc1OC(C)C [Compound 101]	4.12
COc1cc(-c2c3c4cc(OC)c(OC(=O)[C@@H](N)C(C)C)cc4oc(=O)c3n3ccc4cc(OC(=O)[C@@H](N)C(C)C)c(OC)cc4c23)ccc1OC(=O)[C@@H](N)C(C)C [Compound 195]	1.76
COc1cc(-c2c3n(c4c(=O)oc5cc(O)c(OC)cc5c24)CCc2cc(O)c(OC)cc2-3)ccc1O [Compound 109]	3.76
COc1cc(-c2c3n(c4c(=O)oc5cc(OC(=O)[C@H](C)N)c(OC)cc5c24)CCc2cc(OC(=O)[C@H](C)N)c(OC)cc2-3)ccc1OC(=O)[C@H](C)N [Compound 42]	2.86
COc1cc2c(cc1O)oc(=O)c1c2c(-c2ccc(OC)c(OC)c2)c2c3cc(OC)c(O)cc3ccn21 [Compound 233]	2.53
COc1cc(-c2c3n(c4c(=O)oc5cc(OC(=O)[C@@H](N)CO)c(OC)cc5c24)CCc2c-3cc(OC)c(OC)c2OC(=O)[C@@H](N)CO)ccc1OC(=O)[C@@H](N)CO [Compound 59]	3.04
COc1cc(-c2c3c4cc(OC)c(OC(=O)C[C@H](N)C(C)C)cc4oc(=O)c3n3ccc4cc(OC(=O)C[C@H](N)C(C)C)c(OC)cc4c23)ccc1OC(=O)C[C@H](N)C(C)C [Compound 206]	2.14
COc1cc(-c2c3n(c4c(=O)oc5cc(N)c(OC)cc5c24)CCc2cc(OC)c(OC)cc2-3)ccc1N [Compound 57]	2.79
COc1cc(-c2c3c4cc(OC)c(OC(=O)CCCCCN)cc4oc(=O)c3n3ccc4cc(OC(=O)CCCCCN)c(OC)cc4c23)ccc1OC(=O)CCCCCN [Compound 169]	2.18
C=CCOC(=O)N[C@@H](C)C(=O)Oc1ccc(-c2c3c4cc(OC)c(OC(=O)[C@H](C)NC(=O)OCC=C)cc4oc(=O)c3n3ccc4cc(OC(=O)[C@H](C)NC(=O)OCC=C)c(OC)cc4c23)cc1OC [Compound 210]	2.60
COc1cc(-c2c3n(c4c(=O)oc5cc(OC(=O)c6cc(F)c(F)c(F)c6F)c(OC)cc5c24)CCc2c-3cc(OC)c(OC)c2OC(=O)c2cc(F)c(F)c(F)c2F)ccc1OC(=O)c1cc(F)c(F)c(F)c1F [Compound 99]	3.97
